Measured inhibition values are reported for all entries that follow.
- test-system: Gag-Pol polyprotein (Human immunodeficiency virus type 1 group M subtype B (isolate BH10)(HIV-1))
- protocol-text: Inhibition of RNA dependent DNA polymerase activity of HIV1 BH10 recombinant reverse transcriptase p66/p51 expressed in Escherichia coli at 10 uM
- applied-conditions: Human immunodeficiency virus 1
Kindly report the value followed by its unit.

Observe how each entry below is paired with its result.
• CCCCC/C=C\C/C=C\CCCCCCCC(=O)OC[C@H](CO[C@@H]1O[C@H](CO)[C@H](O)[C@H](O)C1O)OC(=O)CCCCCCCCCCCCCCC (single isomer, unassigned) = 65%
• CCCCC/C=C\C/C=C\CCCCCCCC(=O)OC[C@H](CO[C@H]1O[C@H](CS(=O)(=O)O)[C@@H](O)[C@H](O)[C@H]1O)OC(=O)CCCCCCCCCCCCCCC = 100%
• CCCCCCCCCCCCCCCC(=O)OC[C@H](CO[C@H]1O[C@H](CS(=O)(=O)O)[C@@H](O)[C@H](O)[C@H]1O)OC(=O)CCCCCCCCCCCCCCC = 100%
• CCCCCCCC/C=C\CCCCCCCC(=O)OC[C@H](CO[C@@H]1O[C@H](CO)[C@H](O)[C@H](O)C1O)OC(=O)CCCCCCCCCCCCCCC (single isomer, unassigned) = 33%
• CCCCCCCCCCCCCCCC(=O)OC[C@H](CO[C@@H]1O[C@H](CO)[C@H](O)[C@H](O)C1O)OC(=O)CCCCCCCCCCCCCCC (single isomer, unassigned) = 8%
• CCCCCCCC/C=C\CCCCCCCC(=O)OC[C@H](CO[C@H]1O[C@H](CS(=O)(=O)O)[C@@H](O)[C@H](O)[C@H]1O)OC(=O)CCCCCCCCCCCCCCC = 100%
• CCCCC/C=C\C/C=C\CCCCCCCC(=O)OC[C@H](CO[C@H]1O[C@H](CS(=O)(=O)O)[C@@H](O)[C@H](OC(=O)CCCCCCCCCCCCCCC)[C@H]1OC(=O)CCCCCCCCCCCCCCC)OC(=O)CCCCCCCCCCCCCCC = 100%

Attention now turns to another entry.
inhibition recorded for this compound, CCCCC/C=C\C/C=C\CCCCCCCC(=O)OC[C@H](CO[C@@H]1O[C@H](CO[C@H]2O[C@H](CO)[C@H](O)[C@H](OC(=O)CCCCCCCCCCCCCCC)[C@H]2O)[C@H](O)[C@H](O)[C@H]1O)OC(=O)CCCCCCCCCCCCCCC , is 42%
